procedure-summary: Primary qHTS for inhibitors of MERS-S pseudo-typed particle cell entry (AID 1479149); also: nearly all actives have a fitted effect of over 60% in size; also: potency is read from the fitted curve at half-maximal effect
experimental-context: MERS-S pseudotyped particle entry, luciferase; series mostly up to 57.1 µM
Results filed as inconclusive are left out. Calls of active or inactive are those of the source. Calls follow the shape of the full dose curve.

- compound: "C=C1c2cccc(O)c2C(O)=C2C(=O)[C@]3(O)C(O)=C(C(N)=O)C(=O)[C@@H](N(C)C)[C@@H]3[C@@H](O)[C@H]12"
  Potency: "inactive"
- compound: "C[C@H](CCC(=O)O)[C@H]1CC[C@H]2[C@@H]3C(=O)C[C@@H]4CC(=O)CC[C@]4(C)[C@H]3CC(=O)[C@]12C"
  Potency: "inactive"
- compound: "CC(=O)OCC(=O)[C@@]1(O)CCC2C3CCC4=CC(=O)CC[C@]4(C)C3[C@@H](O)C[C@@]21C (stereo not given in full)"
  Potency: "inactive"
- compound: "CCOc1ccc(C(=O)OCCN(CC)CC)cc1"
  Potency: "inactive"
- compound: "Cc1cccc(N(C)C(=S)Oc2ccc3c(c2)C2CCC3C2)c1 (stereo not given)"
  Potency: "inactive"
- compound: "C[C@H]1C[C@H]2[C@@H]3CCC4=CC(=O)C=C[C@]4(C)[C@@]3(Cl)[C@@H](O)C[C@]2(C)[C@@]1(O)C(=O)CO"
  Potency: "inactive"
- compound: "Nc1ccn([C@H]2CC[C@@H](CO)O2)c(=O)n1"
  Potency: "inactive"
- compound: "CCOC(=O)c1cc(=O)c2c(OCC(COc3cccc4oc(C(=O)OCC)cc(=O)c34)OC(=O)[C@@H](N)CCCCN)cccc2o1"
  Potency: "inactive"
- compound: "Nc1c2c(nc3ccccc13)CCCC2"
  Potency: "inactive"
- compound: "Oc1ccc(CCNCCCCCCNCCc2ccccc2)cc1O"
  Potency: "inactive"
- compound: "CNC(=O)c1cnn(-c2nc(N)c3ncn([C@@H]4O[C@H](CO)[C@@H](O)[C@H]4O)c3n2)c1"
  Potency: "inactive"
- compound: "C=CCOc1cc(Cl)ccc1C(=O)NCCN(CC)CC"
  Potency: "inactive"
- compound: "CCC(=O)O[C@]1(C(=O)SCF)[C@H](C)C[C@H]2[C@@H]3C[C@H](F)C4=CC(=O)C=C[C@]4(C)[C@@]3(F)[C@@H](O)C[C@@]21C"
  Potency: "inactive"
- compound: "C/C=C(/C(=C/C)c1ccc(O)cc1)c1ccc(O)cc1"
  Potency: "inactive"
- compound: "CC(Cc1ccccc1)NCc1ccccc1Cl (stereo not given)"
  Potency: "inactive"
- compound: "CCC(=O)Oc1ccc2c(c1)CC[C@@H]1[C@@H]2CC[C@@]2(C)[C@H]1C[C@@H](OC(=O)CC)[C@@H]2OC(=O)CC"
  Potency: "inactive"
- compound: "CC(Cc1ccccc1)NCCCCl (stereo not given)"
  Potency: "inactive"
- compound: "C[C@]12CC[C@@H]3c4ccc(O)cc4CC[C@H]3[C@@H]1CCC2=O"
  Potency: "inactive"
- compound: "O=[N+]([O-])c1nccn1CO[C@@H](CO)[C@H](O)CO"
  Potency: "inactive"
- compound: "CC(=O)Oc1ccc(C(=C2CCCCC2)c2ccc(OC(C)=O)cc2)cc1"
  Potency: "inactive"
- compound: "CCOc1ccc(Cc2nccc3cc(OCC)c(OCC)cc23)cc1OCC"
  Potency: "3.55 µM (active)"
- compound: "C[C@]12CC[C@@H]3c4ccc(O)cc4CC[C@H]3[C@@H]1C[C@@H](O)[C@@H]2O"
  Potency: "inactive"
- compound: "CCCCCCCCCCCCOS(=O)(=O)O"
  Potency: "inactive"
- compound: "O=C(OCC(O)CO)c1ccccc1Nc1ccnc2c(C(F)(F)F)cccc12 (stereo not given)"
  Potency: "inactive"
- compound: "CN(C)C(=S)SSC(=S)N(C)C"
  Potency: "inactive"
- compound: "CC(C)NCCCC1(C(N)=O)c2ccccc2-c2ccccc21"
  Potency: "inactive"
- compound: "CCN(CC)CCNC(C(=O)OCCC(C)C)c1ccccc1 (stereo not given)"
  Potency: "inactive"
- compound: "CN(C)CCOC(c1ccccc1)c1ccc(Br)cc1 (stereo not given)"
  Potency: "inactive"
- compound: "OCc1ccccc1O"
  Potency: "inactive"
- compound: "CN(C)CC[C@@H](c1ccc(Cl)cc1)c1ccccn1"
  Potency: "inactive"
- compound: "CC[N+]1(CC)CCC(=C(c2ccccc2)c2ccccc2)C1C (stereo not given)"
  Potency: "inactive"
- compound: "C1CCC(C(CC2CCCCN2)C2CCCCC2)CC1 (stereo not given)"
  Potency: "10 µM (active)"
- compound: "CCCc1cc(C(N)=S)ccn1"
  Potency: "inactive"
- compound: "CC(C(=O)O)c1ccc2c(c1)Cc1cccnc1O2 (stereo not given)"
  Potency: "inactive"
- compound: "Cc1cc(C(C)(C)C)cc(C)c1CC1=NCCN1"
  Potency: "inactive"
- compound: "CCCCCCCCCCCCOCCOCCOCCOCCOCCOCCOCCOCCOCCO"
  Potency: "8.91 µM (active)"
- compound: "CCOC(=O)c1ccc(C#Cc2ccc3c(c2)C(C)(C)CCS3)nc1"
  Potency: "inactive"
- compound: "C[C@@H](C1=C(CCN(C)C)Cc2ccccc21)c1ccccn1"
  Potency: "inactive"
- compound: "O=c1oc2c(O)c(O)cc3c(=O)oc4c(O)c(O)cc1c4c23"
  Potency: "inactive"
- compound: "CCCCC1(COC(=O)CCC(=O)O)C(=O)N(c2ccccc2)N(c2ccccc2)C1=O"
  Potency: "inactive"
- compound: "CNC(=O)Oc1cccc2ccccc12"
  Potency: "inactive"
- compound: "CCCc1ncc(C[n+]2ccccc2C)c(N)n1"
  Potency: "inactive"
- compound: "Brc1c(NC2=NCCN2)ccc2nccnc12"
  Potency: "inactive"
- compound: "CCOC(=O)n1ccn(C)c1=S"
  Potency: "inactive"
- compound: "CN(C)CCN(Cc1cccs1)c1ccccn1"
  Potency: "inactive"
